// pIC50 lookup, one value per entry
Target: CDK9/Cyclin T1 complex (Homo sapiens)
Sequence (P50750 whole entry): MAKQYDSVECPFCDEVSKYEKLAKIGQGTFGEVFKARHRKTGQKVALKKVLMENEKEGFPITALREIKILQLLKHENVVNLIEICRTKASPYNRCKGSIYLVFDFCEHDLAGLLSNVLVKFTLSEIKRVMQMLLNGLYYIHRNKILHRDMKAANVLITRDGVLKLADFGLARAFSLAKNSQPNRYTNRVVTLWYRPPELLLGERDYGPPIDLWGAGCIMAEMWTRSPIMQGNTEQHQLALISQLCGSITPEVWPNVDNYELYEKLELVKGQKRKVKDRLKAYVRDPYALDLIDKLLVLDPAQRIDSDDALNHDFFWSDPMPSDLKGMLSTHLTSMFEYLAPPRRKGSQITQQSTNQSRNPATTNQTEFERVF
Sequence (O60563 whole entry partner): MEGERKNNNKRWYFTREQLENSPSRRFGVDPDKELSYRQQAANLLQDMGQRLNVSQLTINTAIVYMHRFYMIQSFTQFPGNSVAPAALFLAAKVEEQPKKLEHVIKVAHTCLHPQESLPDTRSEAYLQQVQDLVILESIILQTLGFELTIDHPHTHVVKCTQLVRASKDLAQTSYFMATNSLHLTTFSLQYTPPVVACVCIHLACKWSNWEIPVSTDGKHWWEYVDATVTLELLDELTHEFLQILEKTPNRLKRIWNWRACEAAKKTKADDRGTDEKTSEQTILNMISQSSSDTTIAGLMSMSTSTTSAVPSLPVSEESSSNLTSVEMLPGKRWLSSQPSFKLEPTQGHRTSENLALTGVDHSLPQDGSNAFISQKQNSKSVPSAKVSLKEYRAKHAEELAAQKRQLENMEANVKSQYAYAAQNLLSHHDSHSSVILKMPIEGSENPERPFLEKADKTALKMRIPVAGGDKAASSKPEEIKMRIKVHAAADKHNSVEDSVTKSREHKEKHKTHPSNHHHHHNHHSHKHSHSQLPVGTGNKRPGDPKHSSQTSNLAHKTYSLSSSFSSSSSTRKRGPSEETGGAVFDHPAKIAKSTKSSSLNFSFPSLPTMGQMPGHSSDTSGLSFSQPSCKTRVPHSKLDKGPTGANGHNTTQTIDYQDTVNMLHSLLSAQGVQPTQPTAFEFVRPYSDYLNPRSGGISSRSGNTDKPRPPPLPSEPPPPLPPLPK
Test: CDK9 kinase inhibition assay (Caliper/LabChip EZ Reader)
Conditions: CDK9/Cyclin T1 8 nM, ATP 2 mM, 15 min at 27° C.
pIC50: −log10 of the molar value.

Look over these answered cases.
O=C(O)c1ccc2c(-c3nc(NC4CCCNC4)ncc3C(F)(F)F)c[nH]c2c1 (centres unmarked) :: ≤ 5.30
CN(C)S(=O)(=O)c1cccc2c(-c3nc(NC4CCCNC4)ncc3C(F)(F)F)c[nH]c12 (centres unmarked) :: 5.30 to 6.70
Cc1cn(-c2cccc3c(-c4nc(NC5CCCNC5)ncc4C(F)(F)F)c[nH]c23)cn1 (centres unmarked) :: 5.30 to 6.70
N#Cc1ccc2c(-c3nc(N[C@@H]4CCC5(CCC5)NC4)ncc3C(F)(F)F)c[nH]c2c1 :: 5.30 to 6.70
N#Cc1cnc(NC2CCCNC2)nc1-c1c[nH]c2ccccc12 (centres unmarked) :: 5.30 to 6.70
N#Cc1cccc2c(-c3nc(NC4CCCNC4)ncc3C(F)(F)F)c[nH]c12 (centres unmarked) :: 5.30 to 6.70
CC(C)n1cc(-c2nc(NC3CCCNC3)ncc2Cl)c2ccccc21 (centres unmarked) :: 5.30 to 6.70
Clc1cnc(NC2CCCNC2)nc1-c1cnn2ccccc12 (centres unmarked) :: 5.30 to 6.70

query: What measured pIC50 goes with COC1CCN(C(=O)c2ccc3c(-c4nc(NC5CCCNC5)ncc4C(F)(F)F)c[nH]c3c2)C1 (centres unmarked) [Compound 280] ?
result: ≤ 5.30

query: What measured pIC50 goes with Clc1cnc(NC2CCCNC2)nc1-c1c[nH]c2cccnc12 (centres unmarked) ?
result: ≤ 5.30

query: What measured pIC50 goes with FC(F)(F)c1cnc(NC2CCCNC2)nc1-c1c[nH]c2cc(-c3ncc[nH]3)ccc12 (centres unmarked) ?
result: 5.30 to 6.70

query: What measured pIC50 goes with FC(F)(F)c1cnc(NC2CCCNC2)nc1-c1c[nH]c2c(-c3ccnnc3)cccc12 (centres unmarked) ?
result: 5.30 to 6.70

query: What measured pIC50 goes with COCn1cc(-c2nc(NC3CCCNC3)ncc2C(F)(F)F)c2ccc(C#N)nc21 (centres unmarked) ?
result: ≤ 5.30

query: What measured pIC50 goes with `CNC(=O)c1cccc2c(-c3nc(N[C@H]4CCCNC4)ncc3C(F)(F)F)c[nH]c12` ?
result: 5.30 to 6.70

query: What measured pIC50 goes with FC(F)(F)c1cnc(NC2CCCNC2)nc1-c1c[nH]c2cc(-c3ccc4[nH]cnc4c3)ccc12 (centres unmarked) ?
result: 5.30 to 6.70

query: What measured pIC50 goes with `FC(F)(F)c1cnc(N[C@H]2CCCNC2)nc1-c1c[nH]c2cc(-c3cccc4cnccc34)ccc12` ?
result: ≤ 5.30

query: What measured pIC50 goes with CP(C)(=O)c1ccc2c(-c3nc(NC4CCCNC4)ncc3C(F)(F)F)c[nH]c2c1 (centres unmarked) ?
result: ≤ 5.30
